- test.name: Cytotoxicity assay
- Format: cell-based, canine
- assay.context: dog, MDCK cells
// CC50 at 3 days lookup, one value per entry
Please reply with the bare figure in µg/mL and do not write the unit itself.

Solved entries:
# compound, property, result.number
measured = [
    ("NC(=O)c1ncn([C@@H]2O[C@H](CO)[C@@H](O)[C@H]2O)n1 [Ribavirin, reference compound]", "CC50 at 3 days", 116),
    ("C=C1CCC[C@]2(C)C[C@]3(O)OC(=O)C(C)=C3C[C@@H]12 [Atractylenolide III, atractylenolide III]", "CC50 at 3 days", 191),
]

Could you please provide reported CC50 at 3 days for C=C1CCC[C@]2(C)Cc3occ(C)c3C[C@@H]12 [Atractylon, atractylon] ? Thanks! 261
